For each entry below, report its Kd value.
tgt: FLNA (Homo sapiens)
Sequence (P21333 whole entry): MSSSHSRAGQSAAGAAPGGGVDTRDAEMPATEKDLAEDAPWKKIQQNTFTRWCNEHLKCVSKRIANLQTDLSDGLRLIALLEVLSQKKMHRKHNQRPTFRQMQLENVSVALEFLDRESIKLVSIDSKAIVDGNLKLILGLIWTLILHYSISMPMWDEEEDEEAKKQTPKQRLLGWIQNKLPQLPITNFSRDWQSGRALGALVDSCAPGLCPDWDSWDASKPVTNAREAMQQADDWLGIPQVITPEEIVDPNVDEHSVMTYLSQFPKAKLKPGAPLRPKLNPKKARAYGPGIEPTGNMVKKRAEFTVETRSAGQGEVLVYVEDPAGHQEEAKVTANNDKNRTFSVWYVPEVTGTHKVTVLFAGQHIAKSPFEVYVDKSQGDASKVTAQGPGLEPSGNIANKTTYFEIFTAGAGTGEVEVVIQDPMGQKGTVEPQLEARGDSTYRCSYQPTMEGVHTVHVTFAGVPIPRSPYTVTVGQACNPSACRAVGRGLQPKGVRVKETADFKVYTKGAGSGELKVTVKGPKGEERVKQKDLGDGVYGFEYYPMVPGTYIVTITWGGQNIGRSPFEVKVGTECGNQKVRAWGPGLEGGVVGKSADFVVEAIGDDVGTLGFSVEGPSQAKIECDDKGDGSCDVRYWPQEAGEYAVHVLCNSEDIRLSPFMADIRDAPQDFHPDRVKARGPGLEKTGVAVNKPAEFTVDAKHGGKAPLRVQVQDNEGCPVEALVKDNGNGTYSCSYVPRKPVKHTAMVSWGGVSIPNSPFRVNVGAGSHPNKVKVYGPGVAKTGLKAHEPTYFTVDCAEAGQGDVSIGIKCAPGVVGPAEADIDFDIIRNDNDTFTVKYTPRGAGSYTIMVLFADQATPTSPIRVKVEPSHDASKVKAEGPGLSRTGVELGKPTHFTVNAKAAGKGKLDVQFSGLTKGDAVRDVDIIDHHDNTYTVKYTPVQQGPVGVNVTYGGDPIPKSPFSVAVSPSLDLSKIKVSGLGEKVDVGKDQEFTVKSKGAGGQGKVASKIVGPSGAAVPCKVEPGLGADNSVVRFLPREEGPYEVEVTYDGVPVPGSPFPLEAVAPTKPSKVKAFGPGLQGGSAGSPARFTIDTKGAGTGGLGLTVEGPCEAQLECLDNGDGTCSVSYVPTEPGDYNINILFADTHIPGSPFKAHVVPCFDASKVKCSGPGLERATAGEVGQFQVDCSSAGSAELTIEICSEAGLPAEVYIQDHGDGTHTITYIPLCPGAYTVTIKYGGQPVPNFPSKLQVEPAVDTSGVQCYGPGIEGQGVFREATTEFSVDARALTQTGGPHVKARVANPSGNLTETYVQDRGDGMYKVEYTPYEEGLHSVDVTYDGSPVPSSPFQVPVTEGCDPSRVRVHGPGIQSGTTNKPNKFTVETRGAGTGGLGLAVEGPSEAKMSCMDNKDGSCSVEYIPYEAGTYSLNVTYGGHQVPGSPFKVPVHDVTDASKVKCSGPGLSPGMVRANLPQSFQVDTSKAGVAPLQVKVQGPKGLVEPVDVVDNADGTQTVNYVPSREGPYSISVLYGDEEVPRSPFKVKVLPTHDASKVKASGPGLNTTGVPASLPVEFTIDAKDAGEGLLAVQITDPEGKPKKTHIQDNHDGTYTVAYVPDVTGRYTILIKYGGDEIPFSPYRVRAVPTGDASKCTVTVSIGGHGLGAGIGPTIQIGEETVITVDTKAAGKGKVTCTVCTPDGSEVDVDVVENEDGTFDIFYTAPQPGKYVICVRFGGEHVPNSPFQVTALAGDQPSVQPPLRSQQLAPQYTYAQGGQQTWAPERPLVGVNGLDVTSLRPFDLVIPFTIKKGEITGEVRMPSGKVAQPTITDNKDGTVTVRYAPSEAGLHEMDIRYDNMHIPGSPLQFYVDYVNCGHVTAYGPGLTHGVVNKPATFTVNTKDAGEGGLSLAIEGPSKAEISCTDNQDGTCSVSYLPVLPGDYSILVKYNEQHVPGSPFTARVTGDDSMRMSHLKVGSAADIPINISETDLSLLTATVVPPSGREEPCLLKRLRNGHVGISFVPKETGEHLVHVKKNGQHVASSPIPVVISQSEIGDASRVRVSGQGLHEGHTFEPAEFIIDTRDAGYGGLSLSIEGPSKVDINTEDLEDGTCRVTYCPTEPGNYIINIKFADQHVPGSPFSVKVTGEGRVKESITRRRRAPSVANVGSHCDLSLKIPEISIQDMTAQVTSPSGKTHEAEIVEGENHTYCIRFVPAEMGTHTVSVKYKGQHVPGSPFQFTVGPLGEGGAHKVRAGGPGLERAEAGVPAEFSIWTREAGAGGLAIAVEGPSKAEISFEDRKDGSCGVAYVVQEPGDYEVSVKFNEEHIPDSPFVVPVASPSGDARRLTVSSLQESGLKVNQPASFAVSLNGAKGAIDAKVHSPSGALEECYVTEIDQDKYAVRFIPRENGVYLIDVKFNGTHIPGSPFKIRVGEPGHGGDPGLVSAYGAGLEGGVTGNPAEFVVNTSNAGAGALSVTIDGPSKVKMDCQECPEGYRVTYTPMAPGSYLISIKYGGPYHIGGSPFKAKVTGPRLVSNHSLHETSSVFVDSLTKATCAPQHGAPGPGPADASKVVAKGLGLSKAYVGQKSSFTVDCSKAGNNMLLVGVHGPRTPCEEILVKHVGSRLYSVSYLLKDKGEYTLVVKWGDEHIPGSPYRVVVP
methodNotes: FLNA binding affinity screen
appliedConditions: read-out: FLNA affinity

COc1ccc(S(=O)(=O)N2CCC3(CC2)OCCN3S(=O)(=O)c2ccc(OC)cc2)cc1 [Compound 5]; 8.65 pM

Kindly review the next compound as well.
(Q) Query (compound): COc1ccc(C(=O)CC2c3c(cc4c(c3OC)OCO4)CC[N+]2(C)C)c(OC)c1 (centres unmarked) [Compound 7] ; field requested: Kd
(A) 2.86 pM

###

For each record, write down the corresponding Stimulation of other Go-coupled receptors.
Tested on: other Go-coupled receptors
methodNotes: Stimulation of other Go-coupled receptors
Assay type: biochemical
appliedConditions: 0.1 μM screen
Answers are plain numbers, in %.

COc1ccccc1CC(=O)CC1c2c(cc3c(c2OC)OCO3)CC[N+]1(C)C (stereo not drawn) [Compound 6]; 23
C[C@@H](NC(=O)[C@@H](N)Cc1ccc(O)cc1)C(=O)NCC(=O)N(C)[C@@H](Cc1ccccc1)C(=O)NCCO [DAMGO]; 6

We next turn to a different molecule, shown below.
(Q) Consider the molecule shown here: COC(OC)C12CCC(=O)C=C1CCC1C3CCC(OC(C)=O)C3(C)CCC12 (stereo not drawn) [Compound 1] What is its recorded Stimulation of other Go-coupled receptors?
(A) 19
